assay: High Content Assay for Compounds that inhibit the Assembly of the Perinucleolar Compartment; conditions: PC3M PTB-GFP, PNC prevalence imaging, 16 h; at 10 µM; active compounds read low;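 also: plate controls were DMSO wells for no effect and camptothecin positive control wells for full effect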
The campaign covered roughly 140,000 compounds. About 4,300 (3.1%) were called active. About 21% were inconclusive and are not listed. For the sample, actives were picked, then their nearest neighbours and some compounds at random.
MEASUREMENT TYPE: activity change (PNC), negative = inhibition (%)

>>> recorded_result("CC(=O)Nc1ccc(N2CCOCC2)c(C(=O)Nc2cccc(C)c2)c1")
-7.92
>>> recorded_result("CC(=O)Nc1cccc(Oc2cc(C#N)c(C#N)cc2N2CCOCC2)c1")
-107
>>> recorded_result("CN(c1ccc(C(=O)N2CCc3ccccc3C2)cc1)S(C)(=O)=O")
-100
>>> recorded_result("CC(=O)Nc1cccc(NC(=O)c2c(-c3ccccc3)noc2C)c1")
19.7
>>> recorded_result("O=C1CCCc2nn(-c3ccccc3)nc21")
-100
>>> recorded_result("C=CCNCCCCOc1ccccc1")
-6.05
>>> recorded_result("O=C(/C=C/c1cnc2ccccc2n1)NC1CCCCCC1")
-24.3
>>> recorded_result("CCOC(=O)CNC(=O)/C=C/c1c(Cl)cccc1Cl")
-123
>>> recorded_result("CC(C)CC(CO)N1CCN(C(=O)c2ccc(Cl)cc2Cl)CCC1=O (configuration not stated)")
-91.5
>>> recorded_result("COCCCNCCOCCOc1ccc(Cl)cc1Br")
40.2
>>> recorded_result("CC(C)CC(COCc1ccc(Cl)cc1)N1CCN(C(=O)c2ccc(C(F)(F)F)cc2)CCC1=O (configuration not stated)")
49.5
>>> recorded_result("Cc1ccsc1C(=O)N/N=C/c1ccc([N+](=O)[O-])cc1")
-4.41
>>> recorded_result("CN(c1ccc(C(=O)NCCC2=CCCCC2)cc1)S(C)(=O)=O")
32.9
>>> recorded_result("Cc1onc(-c2ccccc2)c1C(=O)NNC(=S)NC(=O)c1ccc(F)cc1")
19.1
>>> recorded_result("Cc1ccc2[nH]c(=O)c(CC=C(Cl)Cl)c(C)c2c1")
8.75
>>> recorded_result("CNC(=S)N1CCN(c2ccccn2)CC1")
-10.5
>>> recorded_result("Cc1ccc(CNC(=O)C2CC(c3ccccc3[N+](=O)[O-])=NO2)o1 (configuration not stated)")
-9.83
>>> recorded_result("CCn1nc(C(=O)OCC(=O)N2c3ccccc3CC2C)c2ccccc2c1=O (configuration not stated)")
-8.81
>>> recorded_result("CC(C)C(=O)NC(=S)Nc1ccccc1F")
28.8
>>> recorded_result("Cn1cc([N+](=O)[O-])c(C(=O)Nc2cnn(Cc3ccc(F)cc3)c2)n1")
-17
>>> recorded_result("CC1Cc2ccccc2N1C(=O)Cn1cnc2ccccc2c1=O (configuration not stated)")
-80.4
>>> recorded_result("COc1ccc(/C(N)=N/OC(=O)Cc2ccccc2)cc1")
17.5
>>> recorded_result("COc1ccc(-c2nc(CS(=O)CC(=O)NCc3ccccn3)c(C)o2)cc1 (configuration not stated)")
-19.8
>>> recorded_result("O=C(O)c1ccc(/C=N/NC(=O)c2ccc(Br)cc2)cc1")
-18.4
>>> recorded_result("Cc1ccc(-c2nc(CS(=O)CC(=O)N3CCN(c4ncccn4)CC3)c(C)o2)cc1 (configuration not stated)")
11.5
>>> recorded_result("CC(c1ccccn1)N(CCN(C)C)C(=S)Nc1ccccc1F (configuration not stated)")
-111
>>> recorded_result("CC1CCCN(S(=O)(=O)c2ccc(N(C(=O)c3cnccn3)C(C(=O)NC3CCCCC3)c3cccs3)cc2)C1 (configuration not stated)")
13.4
>>> recorded_result("COc1ccc(/C(N)=N/OC(=O)Oc2ccccc2)cc1")
13.5
>>> recorded_result("CC(C)(C)NCCCOc1ccc(Cl)cc1C(C)(C)C")
-102
>>> recorded_result("O=C(c1cc(Cl)cc(Cl)c1)N1CCC(=O)N(C(COCc2ccccc2)Cc2ccccc2)CC1 (configuration not stated)")
27.5
>>> recorded_result("O=C(/C=C/c1c(Cl)cccc1Cl)NCc1ccccc1")
-1.54
>>> recorded_result("O=C(CCc1ccccc1)Nc1nn[nH]n1")
50.3
>>> recorded_result("CCc1ccc(C(=O)OCC(=O)Nc2cccc(S(=O)(=O)NC3=NCCCCC3)c2)cc1")
14.5
>>> recorded_result("CC1Cc2ccccc2N1C(=O)CSc1nc2ccccc2o1 (configuration not stated)")
31.3
>>> recorded_result("CCOC(=O)c1c(-c2cccc(C)c2)csc1NC(=O)c1c(-c2ccccc2)noc1C")
-101
>>> recorded_result("O=C(CCN1C(=O)c2ccccc2C1=O)NNC(=O)c1ccc(Cl)cc1Cl")
53
>>> recorded_result("N/C(=N\\OC(=O)CC1CCCCC1)c1ccccc1")
-25.3
>>> recorded_result("Cc1ccc(OCc2nnc(NC(=O)OCC(C)C)s2)cc1")
26.9
>>> recorded_result("COc1ccc(NC(=O)c2ccccc2[N+](=O)[O-])cc1OC")
40.9
>>> recorded_result("CCOc1cccc(NC(=O)CC#N)c1")
-1.74
>>> recorded_result("c1ccc(-n2nc3ccccc3n2)cc1")
-3.58
>>> recorded_result("CC(=O)Nc1cccc(/C(C)=N/NC(=O)c2ccccc2Cl)c1")
5.62
>>> recorded_result("O=C(NC(=S)NC1CCSC1=O)c1ccccc1F (configuration not stated)")
12.8
>>> recorded_result("O=C(Nn1c(-c2ccc(Cl)cc2)nc2ccccc2c1=O)c1cccnc1Cl")
8.85
>>> recorded_result("Cc1cc(Cl)ccc1NC(=S)N1CCC(C(N)=O)(N2CCCCC2)CC1")
74.5
>>> recorded_result("COc1ccc(C)cc1NC(=O)C(Sc1ccccc1)c1ccccc1 (configuration not stated)")
-2.98
>>> recorded_result("CC(O)c1nc2ccccc2n1Cc1ccc([N+](=O)[O-])cc1 (configuration not stated)")
9.78
